Assay: Chemical stability in aqueous buffer solution at different pH, followed kinetically
Type: physicochemical
Conditions: aqueous buffer; after 25 days at 22° at the concentration 50 mg/ml; footnote to the pH 9.5 value; read-out: decomposition

>  <Compound>
COc1ccc2nc([S+]([O-])Cc3ncc(C)c(OC)c3C)n(COP(=O)(O)O)c2c1 (stereo not shown) [Example 29]

>  <degraded at 600 h [%]>
12

$$$$

###

Assay: Solubility in water
Assay type: physicochemical
Conditions: at pH 9, a pH considered suitable for i.v. administration; sodium salt; read-out: solubility

>  <Molecule>
COc1ccc2[nH]c([S+]([O-])Cc3ncc(C)c(OC)c3C)nc2c1 (stereo not shown) [omeprazole, reference compound]

>  <solubility [µg/mL]>
400

$$$$

###

Assay: Chemical stability in aqueous buffer solution at different pH, followed kinetically
Assay type: physicochemical
Conditions: pH 7.3; 37°C; aqueous buffer solution, low concentration; read-out: t 1/2 (hours) pH 7.3 (converted)
Label key: class 1 means half-life under 50 h; class 0 means half-life of 50 h or more.

>  <Compound>
COc1ccc2c(c1)nc([S+]([O-])Cc1ncc(C)c(OC)c1C)n2COC(=O)CCC(=O)N1CCN(C)CC1 (centres unmarked)

>  <Category Label>
class 1

$$$$
>  <Compound>
COc1ccc2nc([S+]([O-])Cc3ncc(C)c(OC)c3C)n(COP(=O)(O)O)c2c1 (centres unmarked)

>  <Category Label>
class 0

$$$$
>  <Compound>
COc1ccc2[nH]c([S+]([O-])Cc3ncc(C)c(OC)c3C)nc2c1 (centres unmarked)

>  <Category Label>
class 1

$$$$
>  <Compound>
COc1c(C)cnc(C[S+]([O-])c2nc3ccccc3n2COC(=O)CCC(=O)N2CCN(C)CC2)c1C (centres unmarked)

>  <Category Label>
class 1

$$$$

###

Assay: Chemical stability in aqueous buffer solution at different pH, followed kinetically
Type: physicochemical
Details: pH 5; 37°C; aqueous buffer solution, low concentration; read-out: t 1/2 (hours) pH 5 (converted)
The following compounds are shown together with reported half-life values.

>  <Compound>
COc1ccc2[nH]c([S+]([O-])Cc3ncc(C)c(OC)c3C)nc2c1 (stereo not drawn)

>  <half-life [h]>
0.04

$$$$
>  <Compound>
COc1c(C)cnc(C[S+]([O-])c2nc3ccccc3n2COC(=O)CCC(=O)N2CCN(C)CC2)c1C (stereo not drawn)

>  <half-life [h]>
112

$$$$
>  <Compound>
COc1ccc2c(c1)nc([S+]([O-])Cc1ncc(C)c(OC)c1C)n2COC(=O)CCC(=O)N1CCN(C)CC1 (stereo not drawn)

>  <half-life [h]>
100

$$$$

###

Test: Chemical stability in aqueous buffer solution at different pH, followed kinetically
Type: physicochemical
Conditions: pH 2; 37°C; aqueous buffer solution, low concentration; read-out: t 1/2 (hours) pH 2 (converted)

>  <Molecule>
COc1ccc2[nH]c([S+]([O-])Cc3ncc(C)c(OC)c3C)nc2c1 (stereo not shown) [Omeprazole-Na^⊕]

>  <half-life [h]>
0.07

$$$$

###

Assay: Chemical stability in aqueous buffer solution at different pH, followed kinetically
Format: physicochemical
Settings: pH 3; 37°C; aqueous buffer solution, low concentration; read-out: t 1/2 (hours) pH 3 (converted)

>  <Compound>
COc1ccc2c(c1)nc([S+]([O-])Cc1ncc(C)c(OC)c1C)n2COC(=O)CCC(=O)N1CCN(C)CC1 (stereo not shown) [Example 34]

>  <half-life / h>
80

$$$$
